// reported inhibition of SARS-CoV-2 cytopathic effect per item
System: Vero E6 infected with SARS-CoV-2
Experiment: inhibition of SARS-CoV-2 cytopathic effect; higher = more antiviral protection, active = above 15
Conditions: 833.33 nM; 48 h
Property Label: inhibition of SARS-CoV-2 cytopathic effect (%)

{"Smiles Record": "Cc1cc2c(N3CCCC3)nc(N3CCCC3)nc2n1C", "Tested Target": "Vero E6 infected with SARS-CoV-2", "Recorded Result": 3.21}
{"Smiles Record": "CC[C@@H]1C(=O)N(C)c2cnc(Nc3ccc(C(=O)N[C@H]4CC[C@H](N5CCN(CC6CC6)CC5)CC4)cc3OC)nc2N1C(C)C", "Tested Target": "Vero E6 infected with SARS-CoV-2", "Recorded Result": -9.3}
{"Smiles Record": "Cc1ccc(NC(=O)c2cccc(C(C)(C)C#N)c2)cc1Nc1ccc2ncn(C)c(=O)c2c1", "Tested Target": "Vero E6 infected with SARS-CoV-2", "Recorded Result": -2.75}
{"Smiles Record": "Cc1cc(N2CCOCC2)ccc1Nc1nc(NC2CCCCC2)c2nc[nH]c2n1", "Tested Target": "Vero E6 infected with SARS-CoV-2", "Recorded Result": 3.17}
{"Smiles Record": "CCC(=O)O[C@@H]1CC(=O)O[C@H](C)C/C=C/C=C/[C@H](OC(C)=O)[C@H](C)C[C@H](CC=O)[C@H](O[C@@H]2O[C@H](C)[C@@H](O[C@H]3C[C@@](C)(OC(C)=O)[C@@H](OC(=O)CC)[C@H](C)O3)[C@H](N(C)C)[C@H]2O)[C@H]1OC", "Tested Target": "Vero E6 infected with SARS-CoV-2", "Recorded Result": 3.25}
{"Smiles Record": "CNC(=O)c1cccc(-c2ccc3c(N4CCOC[C@@H]4C)nc(N4CCOC[C@@H]4C)nc3n2)c1", "Tested Target": "Vero E6 infected with SARS-CoV-2", "Recorded Result": 0.43}
{"Smiles Record": "CC1(C)CC(=O)c2c(C(F)(F)F)nn(-c3ccc(C(N)=O)c(N[C@H]4CC[C@H](O)CC4)c3)c2C1", "Tested Target": "Vero E6 infected with SARS-CoV-2", "Recorded Result": -1.33}

----------
Test system: Vero E6 infected with SARS-CoV-2
Experiment: inhibition of SARS-CoV-2 cytopathic effect; higher = more antiviral protection, active = above 15
Details: 10000 nM; 48 h
Property Label: inhibition of SARS-CoV-2 cytopathic effect (%)

{"Molecule": "COc1ccsc1CNCC[C@@]1(c2ccccn2)CCOC2(CCCC2)C1", "Units Of Measure": "%", "Recorded Result": -0.28}
{"Molecule": "CCc1cc(Cl)c(OC)c(C(=O)NC[C@@H]2CCCN2CC)c1O [eticlopride]", "Units Of Measure": "%", "Recorded Result": 3.78}
{"Molecule": "c1ccc(-c2n[nH]c3c2oc2ccccc23)cc1", "Units Of Measure": "%", "Recorded Result": -0.82}
{"Molecule": "Cc1ncc(CO)c(/C=N/NC(=O)c2ccncc2)c1O [pyridoxal-isonicotinoyl-hydrazone]", "Units Of Measure": "%", "Recorded Result": -0.54}
{"Molecule": "O=c1oc2cc(O)ccc2s1 [tioxolone]", "Units Of Measure": "%", "Recorded Result": -1.5}
{"Molecule": "Cn1cc(C2=C(c3cn(C4CCN(Cc5ccccn5)CC4)c4ccccc34)C(=O)NC2=O)c2ccccc21 [enzastaurin]", "Units Of Measure": "%", "Recorded Result": 3.94}
{"Molecule": "CN[C@@H]1[C@@H](O[C@H]2O[C@H](CO)[C@@H](N)[C@H](O)[C@H]2O)O[C@H]2C[C@@H](N)[C@@H](O[C@H]3[C@H](O)[C@@H](O)[C@H](N)C[C@@H]3N)O[C@@H]2[C@@H]1O [apramycin]", "Units Of Measure": "%", "Recorded Result": 0.71}
{"Molecule": "C[S+]([O-])c1ccc(-c2nc(-c3ccc(F)cc3)c(-c3ccncc3)[nH]2)cc1 (centres undefined)", "Units Of Measure": "%", "Recorded Result": 4.9}
{"Molecule": "C#C[C@]1(O)CC[C@H]2[C@@H]3CCC4=CC(=O)CC[C@]4(C)[C@H]3CC[C@@]21C [ethisterone]", "Units Of Measure": "%", "Recorded Result": 2.77}

----------
Tested on: Vero E6 infected with SARS-CoV-2
Assay: inhibition of SARS-CoV-2 cytopathic effect; higher = more antiviral protection, active = above 15
Conditions: 1 nM; 48 h
// reported inhibition of SARS-CoV-2 cytopathic effect per item
Property Label: inhibition of SARS-CoV-2 cytopathic effect (%)

{"Compound": "CC1(C)S[C@@H]2[C@H](NC(=O)[C@H](NC(=O)N3CCN(S(C)(=O)=O)C3=O)c3ccccc3)C(=O)N2[C@H]1C(=O)O", "Recorded Result": -0.34}
{"Compound": "CC(C(=O)O)c1ccc(N2Cc3ccccc3C2=O)cc1 (centres undefined)", "Recorded Result": 0.91}
{"Compound": "CC(C)c1cc(-c2ccc(F)c3ccccc23)nc(N)n1", "Recorded Result": 0.6}
{"Compound": "O=NO [sodium-nitrite]", "Recorded Result": 1.28}
{"Compound": "COc1ccc(C2CC(c3ccccc3)=NN2c2ccc(S(N)(=O)=O)cc2)cc1 (centres undefined)", "Recorded Result": 0.58}
{"Compound": "C[C@@H]1CC[C@H]2[C@@H](C)C(=O)O[C@@H]3O[C@@]4(C)CC[C@@H]1[C@]32OO4", "Recorded Result": 0.52}
{"Compound": "Cc1cccc(C)c1NC(=O)C1CCCCN1C (centres undefined) [mepivacaine]", "Recorded Result": -3.62}
{"Compound": "O=C(NO)c1ccc(O)c(O)c1", "Recorded Result": 1.58}
{"Compound": "CCCCN(CCCC)CC(O)c1cc(Cl)cc2c1-c1ccc(Cl)cc1/C2=C/c1ccc(Cl)cc1 (centres undefined)", "Recorded Result": -1.1}

----------
Test system: Vero E6 infected with SARS-CoV-2
Test: morphology score (similarity to uninfected cells); higher = more like uninfected cells
Settings: 24 h
// reported morphology score per item
Property Label: morphology score

{"Molecule": "Cc1c(-c2ccnn2C)cc(C(=O)NCc2ccc(S(C)(=O)=O)cn2)c(=O)n1-c1cccc(C(F)(F)F)c1 (10 µM)", "Recorded Result": 0.101}
{"Molecule": "Cc1cc(=O)oc2c(C=O)c(O)ccc12 (10 µM)", "Recorded Result": 0.206}
{"Molecule": "O=C1OCCN1/N=C/c1ccc([N+](=O)[O-])o1 [furazolidone] (10 µM)", "Recorded Result": 0.0225}
{"Molecule": "O=C(Nc1ccc(CN2CCOCC2)cc1)c1ccc(-c2cccc(Cl)c2)o1 (10 µM)", "Recorded Result": 0.194}
{"Molecule": "CC(C)(C#N)c1ccc(N2C(=O)OCc3cnc4ccc(-c5cnc6ccccc6c5)cc4c32)cc1 (10 µM)", "Recorded Result": 0.22}
{"Molecule": "O=[N+]([O-])c1cn2c(n1)OC[C@@H](OCc1ccc(OC(F)(F)F)cc1)C2 [pretomanid] (10 µM)", "Recorded Result": 0.0902}
{"Molecule": "NS(=O)(=O)c1ccc(C(=O)O)cc1 [carzenide] (10 µM)", "Recorded Result": 0.174}
{"Molecule": "O=C1C[C@@H](c2ccc(O)cc2)Oc2cc(O)ccc21 (10 µM)", "Recorded Result": 0.025}
{"Molecule": "COc1ccc(C(CN(C)C)C2(O)CCCCC2)cc1 (centres undefined) [venlafaxine] (10 µM)", "Recorded Result": 0.00722}
{"Molecule": "COc1cccc(N2CCN(C3=Nc4c(F)cccc4[C@H](CC(=O)O)N3c3cc(C(F)(F)F)ccc3OC)CC2)c1 [letermovir] (10 µM)", "Recorded Result": -0.0548}
{"Molecule": "NS(=O)(=O)Nc1ncnc(OCCOc2ncc(Br)cn2)c1-c1ccc(Br)cc1 (10 µM)", "Recorded Result": 0.0685}
{"Molecule": "NCC(CC(=O)O)c1ccc(Cl)cc1 (centres undefined) [baclofen] (10 µM)", "Recorded Result": 0.138}
{"Molecule": "O=C(c1ccc(F)cc1)N1CCC[C@H](c2nc(-c3ccc(F)cc3)no2)C1 (10 µM)", "Recorded Result": 0.242}
{"Molecule": "COc1cc2/c(=N/c3ccc(Br)cc3F)nc[nH]c2cc1OCC1CCN(C)CC1 [vandetanib] (10 µM)", "Recorded Result": 0.0459}
{"Molecule": "Cc1[nH]c2ccccc2c1CCNC(=O)c1cccs1 (10 µM)", "Recorded Result": 0.142}
{"Molecule": "CN(N=O)C(=O)N[C@@H](C=O)[C@@H](O)[C@H](O)[C@H](O)CO [streptozotocin] (10 µM)", "Recorded Result": 0.0397}
{"Molecule": "Nc1ncnc2c1ncn2[C@@H]1O[C@H](COP(=O)(O)OP(=O)(O)OP(=O)(O)O)[C@@H](O)[C@H]1O (10 µM)", "Recorded Result": -0.0072}
{"Molecule": "CCn1c2ccccc2c2cc(CNC)ccc21 (10 µM)", "Recorded Result": 0.514}
{"Molecule": "COc1cc(NC(=O)c2ccccn2)ccc1Cl (10 µM)", "Recorded Result": 0.133}
{"Molecule": "Cc1ccnc2c1CCCC2C(N)=S (centres undefined) [isotiquimide] (10 µM)", "Recorded Result": 0.0559}
{"Molecule": "CC(ONC(=O)c1cc(C(F)(F)F)cc(C(F)(F)F)c1)C(=O)Nc1ccc(Cl)cc1 (centres undefined) (10 µM)", "Recorded Result": 0.227}
{"Molecule": "CC1(C)CC(Oc2ccc(-c3ccc(-c4cn[nH]c4)cc3O)nn2)CC(C)(C)N1 (10 µM)", "Recorded Result": -0.373}
{"Molecule": "CC[N+](CC)(CC)CC(=O)Nc1c(C)cccc1C (10 µM)", "Recorded Result": 0.0409}
{"Molecule": "CC(O)c1cc(C(=O)N[C@@H](C)Cn2ccc(-c3ccc(C#N)c(Cl)c3)n2)n[nH]1 (some centres undefined) (10 µM)", "Recorded Result": 0.201}
{"Molecule": "O=c1ncccn1[C@@H]1O[C@H](CO)[C@@H](O)[C@H]1O [zebularine] (10 µM)", "Recorded Result": 0.0754}
{"Molecule": "FC(F)(F)c1ccc(/C=C/c2nc(COc3ccc(CCCCn4ccnn4)cc3)co2)cc1 [mubritinib] (10 µM)", "Recorded Result": -0.0917}
{"Molecule": "CN1c2c([nH]c(N)nc2=O)NC[C@@H]1CNc1ccc(C(=O)N[C@@H](CCC(=O)O)C(=O)O)cc1 [metafolin] (10 µM)", "Recorded Result": 0.0144}
{"Molecule": "CNC(=O)c1ccc(C)c(-n2c(C)cc(OCc3ccc(F)cc3F)c(Br)c2=O)c1 (0.833333 µM)", "Recorded Result": -0.158}
{"Molecule": "O=C1NC(=O)/C(=C/c2cccc(C(F)(F)F)c2)S1 (10 µM)", "Recorded Result": 0.00293}
{"Molecule": "COC(=O)N[C@H](C(=O)N1CCC[C@H]1C(=O)Nc1ccc([C@@H]2CC[C@@H](c3ccc(NC(=O)[C@@H]4CCCN4C(=O)[C@@H](NC(=O)OC)C(C)C)cc3)N2c2ccc(C(C)(C)C)cc2)cc1)C(C)C [ombitasvir] (10 µM)", "Recorded Result": 0.125}
{"Molecule": "C[C@]12CC[C@@H]3c4ccc(OC(=O)c5ccccc5)cc4CC[C@H]3[C@@H]1CC[C@@H]2O [estradiol-benzoate] (10 µM)", "Recorded Result": -0.19}
{"Molecule": "Cc1ccnc(NC(=O)C(C)c2cccc(C(=O)c3ccccc3)c2)c1 (centres undefined) [piketoprofen] (10 µM)", "Recorded Result": -0.109}
{"Molecule": "CC(C)CCN1c2nc(Nc3cc(F)c(O)c(F)c3)ncc2N(C)C(=O)[C@@H]1C (0.833333 µM)", "Recorded Result": 0.164}
{"Molecule": "Nc1nc(-c2ccc(Cl)c(Cl)c2)c(-c2ccncc2)s1 (10 µM)", "Recorded Result": 0.37}
